target: High affinity nerve growth factor receptor (Homo sapiens); assay: Inhibition of N-terminal His6-tagged human recombinant TrkA (440 to end residues) expressed in baculovirus infected insect Sf21 cells after 1 hr by Alphascreen assay
Sequence (P04629 whole entry): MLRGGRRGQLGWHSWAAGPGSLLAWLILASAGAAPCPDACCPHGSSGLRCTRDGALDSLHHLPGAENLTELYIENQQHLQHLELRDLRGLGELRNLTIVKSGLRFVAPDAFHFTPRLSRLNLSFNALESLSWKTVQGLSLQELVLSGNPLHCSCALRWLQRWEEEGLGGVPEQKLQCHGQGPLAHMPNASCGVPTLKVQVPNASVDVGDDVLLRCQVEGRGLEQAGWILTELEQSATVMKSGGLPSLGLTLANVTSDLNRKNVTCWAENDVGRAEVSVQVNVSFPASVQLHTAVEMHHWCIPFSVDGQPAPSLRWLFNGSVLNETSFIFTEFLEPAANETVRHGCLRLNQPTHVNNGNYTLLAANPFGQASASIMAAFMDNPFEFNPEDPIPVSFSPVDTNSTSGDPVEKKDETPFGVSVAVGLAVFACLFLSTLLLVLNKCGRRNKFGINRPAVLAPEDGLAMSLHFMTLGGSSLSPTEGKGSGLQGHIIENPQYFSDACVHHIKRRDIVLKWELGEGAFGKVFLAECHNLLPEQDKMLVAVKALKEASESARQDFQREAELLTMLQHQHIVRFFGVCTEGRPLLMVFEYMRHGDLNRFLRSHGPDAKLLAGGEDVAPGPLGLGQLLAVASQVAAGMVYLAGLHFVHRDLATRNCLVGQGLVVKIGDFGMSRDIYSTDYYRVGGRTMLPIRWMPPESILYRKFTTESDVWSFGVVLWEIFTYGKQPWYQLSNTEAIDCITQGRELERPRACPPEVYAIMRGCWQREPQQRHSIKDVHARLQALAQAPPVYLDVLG
Recorded endpoint: IC50 (µM)
Answers are plain numbers, in µM.

- Smiles record: "COc1ccc(-c2cnc3cncc(Nc4cc(OC)ccc4OC)c3n2)cc1"
  Reported result: 1.45
- Smiles record: "COc1cccc(Nc2cncc3ncc(-c4ccc(N5CCCCC5)cc4)nc23)c1"
  Reported result: 9.36
- Smiles record: "c1ccc(-c2cnc3cncc(Nc4ccc(N5CCCCC5)cc4)c3n2)cc1"
  Reported result: 3.23

Would you be so kind as to report IC50 for each listed record?
1. c1ccc(-c2cnc3cnc(Nc4ccc(N5CCCCC5)cc4)cc3n2)cc1
2. c1ccc(-c2cnc3c(Nc4ccc(N5CCCCC5)cc4)nccc3n2)cc1

Result string:
[9.24, 5.81]
